# ASSAY REMARKS: Particle size, PdI and zeta potential of mRNA-encapsulating LNPs by dynamic light scattering (Experimental Example 2)
# Assay type: physicochemical
# RUN CONDITIONS: mRNA-encapsulating LNP, cationic lipid:DOPC:Chol = 50:10:40 (molar ratio) + DMG-PEG2k about 1 mol; dynamic light scattering
Collected particle size (nm) values appear next to each entry.
Write your answer as a measured quantity: the number, then the unit.

Sample answers from the record:
CCCCCCCC/C=C\CCCCCCCC(=O)Oc1ccc(CC(=O)OCCC2CCN(CCSSCCN3CCC(CCOC(=O)Cc4ccc(OC(=O)CCCC(=O)OC[C@H](COC(=O)CCCCCC)OC(=O)CCCCCC)cc4)CC3)CC2)cc1; 92.18 nm
CCCCCCCC/C=C\CCCCCCCC(=O)Oc1ccc(CC(=O)OCCC2CCN(CCSSCCN3CCC(CCOC(=O)Cc4ccc(OC(=O)CCCC(=O)OC[C@H](COC(=O)CCCCC)OC(=O)CCCCC)cc4)CC3)CC2)cc1; 94.42 nm
CCCCCCCC/C=C\CCCCCCCC(=O)Oc1ccc(CC(=O)OCCC2CCN(CCSSCCN3CCC(CCOC(=O)Cc4ccc(OC(=O)CCCCCCC/C=C\C[C@H](CCCCCC)OC(C)=O)cc4)CC3)CC2)cc1; 96.63 nm
CCCCCC[C@@H](C/C=C\CCCCCCCC(=O)Oc1ccc(CC(=O)OCCC2CCN(CCSSCCN3CCC(CCOC(=O)Cc4ccc(OC(=O)CCCC(=O)OC[C@H](COC(C)=O)OC(C)=O)cc4)CC3)CC2)cc1)OC(=O)CCCCC; 127.90 nm
CCCCCCC#CCCOC(=O)CCCC(=O)Oc1ccc(CC(=O)OCCC2CCN(CCSSCCN3CCC(CCOC(=O)Cc4ccc(OC(=O)CCCC(=O)Oc5c(C)c(C)c6c(c5C)CCC(C)(CCCC(C)CCCC(C)CCCC(C)C)O6)cc4)CC3)CC2)cc1 (stereo not shown); 94.66 nm

[in] Recorded particle size (nm) of CCCCCCC#CCCOC(=O)CCCC(=O)Oc1ccc(CC(=O)OCCC2CCN(CCSSCCN3CCC(CCOC(=O)Cc4ccc(OC(=O)CCCCCCCC(=O)OC(CCCCCCCC)CCCCCCCC)cc4)CC3)CC2)cc1 , please.
[out] 92.96 nm

---

Collected cumulative luciferase luminescence intensity (RLU) in 24 hr values appear next to each entry.
# System: HeLa cells
# ASSAY REMARKS: In vitro gene expression in HeLa cells (luciferase mRNA-encapsulating LNP, cumulative luminescence in 24 hr)
# RUN CONDITIONS: LNP cationic lipid:DOPC:Chol:DMG-PEG2k = 50:10:40:1, mRNA 0.2 µg per dish, E+0a means 10^a
Reply with a number, then the unit it belongs to.

[in] Requested read-out: cumulative luciferase luminescence intensity (RLU) in 24 hr. Entry: CCCCCCCC/C=C\CCCCCCCC(=O)Oc1ccc(CC(=O)OCCC2CCN(CCSSCCN3CCC(CCOC(=O)Cc4ccc(OC(=O)CCCC(=O)OC[C@H](COC(=O)CCCCC)OC(=O)CCCCC)cc4)CC3)CC2)cc1
[out] 1.24E+08 RLU

[in] Field entry: CCCCCCCC/C=C\CCCCCCCC(=O)Oc1ccc(CC(=O)OCCC2CCN(CCSSCCN3CCC(CCOC(=O)Cc4ccc(OC(=O)CCCCCCC/C=C\C[C@H](CCCCCC)OC(C)=O)cc4)CC3)CC2)cc1
[out] 2.61E+07 RLU

[in] Moving on to CCCCCCCC/C=C\CCCCCCCC(=O)Oc1ccc(CC(=O)OCCC2CCN(CCSSCCN3CCC(CCOC(=O)Cc4ccc(OC(=O)CCCC(=O)OC[C@H](COC(=O)CCCCCC)OC(=O)CCCCCC)cc4)CC3)CC2)cc1
[out] 1.56E+08 RLU
